Test system: SK-OV-3 ovarian
method_summary: NCI tumour cell line growth inhibition, 48 h; in the data active = GI50 below about 0.43 µM; inactive = the rest
Outcomes: active, inactive

[[record]]
structure = "C[N-]c1nnnn1C.[Au+].c1ccc([PH+](c2ccccc2)c2ccccc2)cc1"
tested_system = "SK-OV-3 ovarian"
discrete_label = "inactive"

[[record]]
structure = "S=C(Nc1ccc(Br)cc1)Nc1ccc(Br)cc1"
tested_system = "SK-OV-3 ovarian"
discrete_label = "inactive"

[[record]]
structure = "CCC[CH2][Sn]([CH2]CCC)([CH2]CCC)[O]c1ccc(Cl)cc1Cl"
tested_system = "SK-OV-3 ovarian"
discrete_label = "active"

[[record]]
structure = "Fc1ccc2[nH]cc(-c3nonc3-c3c[nH]c4ccc(Br)cc34)c2c1"
tested_system = "SK-OV-3 ovarian"
discrete_label = "inactive"

[[record]]
structure = "CC(C)(C)C(=O)c1c(C(F)(F)F)n([O-])c2ccccc2[n+]1=O"
tested_system = "SK-OV-3 ovarian"
discrete_label = "inactive"

